List of logK3^H values.
measurement notes: Protonation constants of the ligands (pH-potentiometry)
Format: physicochemical
study conditions: 0.15 M NaCl, 25 °C

[
  {
    "compound": "O=C(CCC(C(=O)O)N1CCN(C(CCC(=O)NCC(O)CO)C(=O)O)Cc2cccc(n2)CN(C(CCC(=O)NCC(O)CO)C(=O)O)CC1)NCC(O)CO (racemic) [rac‐L2]",
    "logK3^H": "4.30 (3)"
  },
  {
    "compound": "O=C(CCC(C(=O)O)N1CCN(C(CCC(=O)NCC(O)CO)C(=O)O)Cc2cccc(n2)CN(C(CCC(=O)NCC(O)CO)C(=O)O)CC1)NCC(O)CO (stereo not drawn) [ent‐L2]",
    "logK3^H": "4.08 (1)"
  },
  {
    "compound": "O=C(O)CCC(C(=O)O)N1CCN(C(CCC(=O)O)C(=O)O)Cc2cccc(n2)CN(C(CCC(=O)O)C(=O)O)CC1 (racemic) [rac‐L1]",
    "logK3^H": "5.50 (1)"
  }
]

Next, consider the following compound.
Fill in the blank: the reported logK3^H of O=C(O)CCC(C(=O)O)N1CCN(C(CCC(=O)O)C(=O)O)Cc2cccc(n2)CN(C(CCC(=O)O)C(=O)O)CC1 (stereo not drawn) [ent‐L1] is ____. 5.50 (2)

###

measurement notes: 1H NMRD profiles and 17O NMR relaxometry in water
Assay type: physicochemical
study conditions: Table 2
measured attribute: τ R (ps)

[
  {
    "compound": "O=C([O-])CCC(C(=O)[O-])N1CCN(C(CCC(=O)[O-])C(=O)[O-])Cc2cccc(n2)CN(C(CCC(=O)[O-])C(=O)[O-])CC1.[Gd+3] (racemic) [[Gd(ent‐L1)]^3−]",
    "measured attribute": "τ R",
    "endpoint unit": "ps",
    "endpoint result": 96
  },
  {
    "compound": "O=C(CCC(C(=O)[O-])N1CCN(C(CCC(=O)NCC(O)CO)C(=O)[O-])Cc2cccc(n2)CN(C(CCC(=O)NCC(O)CO)C(=O)[O-])CC1)NCC(O)CO.[Gd+3] (stereo not drawn) [[Gd(ent‐L2)]]",
    "measured attribute": "τ R",
    "endpoint unit": "ps",
    "endpoint result": 127
  },
  {
    "compound": "O=C([O-])CCC(C(=O)[O-])N1CCN(C(CCC(=O)[O-])C(=O)[O-])Cc2cccc(n2)CN(C(CCC(=O)[O-])C(=O)[O-])CC1.[Gd+3] (mixture of isomers) [[Gd(rac‐L1)]^3−]",
    "measured attribute": "τ R",
    "endpoint unit": "ps",
    "endpoint result": 98
  }
]

###

measurement notes: Protonation constants of the ligands (pH-potentiometry)
Type: physicochemical
study conditions: 0.15 M NaCl, 25 °C
measured attribute: logK2^H

[
  {
    "compound": "O=C(O)CCC(C(=O)O)N1CCN(C(CCC(=O)O)C(=O)O)Cc2cccc(n2)CN(C(CCC(=O)O)C(=O)O)CC1 (racemic) [rac‐L1]",
    "measured attribute": "logK2^H",
    "endpoint result": "6.99 (1)"
  },
  {
    "compound": "O=C(O)CCC(C(=O)O)N1CCN(C(CCC(=O)O)C(=O)O)Cc2cccc(n2)CN(C(CCC(=O)O)C(=O)O)CC1 (stereo not drawn) [ent‐L1]",
    "measured attribute": "logK2^H",
    "endpoint result": "6.82 (1)"
  },
  {
    "compound": "O=C(CCC(C(=O)O)N1CCN(C(CCC(=O)NCC(O)CO)C(=O)O)Cc2cccc(n2)CN(C(CCC(=O)NCC(O)CO)C(=O)O)CC1)NCC(O)CO (racemic) [rac‐L2]",
    "measured attribute": "logK2^H",
    "endpoint result": "5.96 (2)"
  }
]

Next, consider the following compound.
Fill in the blank: the reported logK2^H of O=C(CCC(C(=O)O)N1CCN(C(CCC(=O)NCC(O)CO)C(=O)O)Cc2cccc(n2)CN(C(CCC(=O)NCC(O)CO)C(=O)O)CC1)NCC(O)CO (stereo not drawn) [ent‐L2] is ____. 5.95 (1)
